Below, each entry is listed with its recorded % Activity.
- assay_target: androgen receptor (Rattus norvegicus)
- assay_name: L929 Androgen Receptor Functional Assay, Adenovirus Transduction
- Assay type: cell-based
- Set-up: expressed in transfected cells; host or cells: L929 cells transduced with adenovirus AdEasy+rAR
- reported_conditions: L929 agonist testing; concentration of 3000 nM
- Method: L929 cells were plated in 96-well plates at 20,000 cells per well, in DMEM/F12 (GIBCO) containing 10% (v/v) charcoal-treated fetal bovine serum (Hyclone) and lacking phenol red. […] To each well was added 100 μL of Steady-Glo luciferase assay substrate (Promega) and the plates were placed on a rotary shaker for 1 min. […] The contents of each well were then transferred to a white microtiter plate (Packard) and read on a Luminoskan Ascent (Thermo Lab Systems). […]

// below: answered compounds
CSCCC(C)(O)c1cc2cc([N+](=O)[O-])c(C(F)(F)F)cc2[nH]1 (stereo not shown)
2%
CN(C)c1ccc(S(=O)(=O)CC(C)(O)c2cc3cc(Cl)c(C(F)(F)F)cc3[nH]2)cc1 (racemic)
−5%
CC(O)(CSc1ccc(C(=O)O)cc1)c1cc2cc(Cl)c(C(F)(F)F)cc2n1S(C)(=O)=O (stereo not shown)
−5%
CC(O)(C[S+]([O-])Cc1ccccc1)c1cc2cc([N+](=O)[O-])c(C(F)(F)F)cc2[nH]1 (mixture of isomers)
2%
CCSCC(C)(O)c1[nH]c2cc(C(F)(F)F)c([N+](=O)[O-])cc2c1C (racemic)
−1%
CC(O)(CSCC(F)(F)F)c1cc2cc([N+](=O)[O-])c(C(F)(F)F)cc2[nH]1 (single isomer, unassigned)
1%

Pending compound:
Reported % Activity ( CCS(=O)(=O)CC(C)(O)c1cc2cc(C#N)c(C(F)(F)F)cc2n1C (racemic) ) = 0%

---

- assay_target: androgen receptor (Rattus norvegicus)
- assay_name: COS-7 Whole-Cell Androgen Receptor Binding Assay, Adenovirus Transduction
- reported_conditions: COS Binding
value_type: pIC50
FYI, pIC50 means -log10 of a concentration in mol per litre.

Simply: CCSCC(C)(O)c1[nH]c2cc(C(F)(F)F)c(Br)cc2c1C (stereo not shown) , androgen receptor (Rattus norvegicus), pIC50 = 7.47

---

- assay_target: androgen receptor (Rattus norvegicus)
- assay_name: L929 Androgen Receptor Functional Assay, Adenovirus Transduction
- Type: cell-based
- Parameters: expressed in transfected cells; host or cells: L929 cells transduced with adenovirus AdEasy+rAR
- reported_conditions: L929 antagonist testing with R1881
- Description: L929 cells were plated in 96-well plates at 20,000 cells per well, in DMEM/F12 (GIBCO) containing 10% (v/v) charcoal-treated fetal bovine serum (Hyclone) and lacking phenol red. […] To each well was added 100 μL of Steady-Glo luciferase assay substrate (Promega) and the plates were placed on a rotary shaker for 1 min. […] The contents of each well were then transferred to a white microtiter plate (Packard) and read on a Luminoskan Ascent (Thermo Lab Systems). […]
value_type: IC50 (µM)
Record the value in µM, omitting the unit from your answer.

Reported IC50 ( CC[S+]([O-])CC(C)(O)c1[nH]c2cc(C(F)(F)F)c(C#N)cc2c1C (stereo not shown) ) = 3.1

---

- assay_target: androgen receptor (Rattus norvegicus, UniProt P15207)
- Sequence (P15207 whole entry S389L): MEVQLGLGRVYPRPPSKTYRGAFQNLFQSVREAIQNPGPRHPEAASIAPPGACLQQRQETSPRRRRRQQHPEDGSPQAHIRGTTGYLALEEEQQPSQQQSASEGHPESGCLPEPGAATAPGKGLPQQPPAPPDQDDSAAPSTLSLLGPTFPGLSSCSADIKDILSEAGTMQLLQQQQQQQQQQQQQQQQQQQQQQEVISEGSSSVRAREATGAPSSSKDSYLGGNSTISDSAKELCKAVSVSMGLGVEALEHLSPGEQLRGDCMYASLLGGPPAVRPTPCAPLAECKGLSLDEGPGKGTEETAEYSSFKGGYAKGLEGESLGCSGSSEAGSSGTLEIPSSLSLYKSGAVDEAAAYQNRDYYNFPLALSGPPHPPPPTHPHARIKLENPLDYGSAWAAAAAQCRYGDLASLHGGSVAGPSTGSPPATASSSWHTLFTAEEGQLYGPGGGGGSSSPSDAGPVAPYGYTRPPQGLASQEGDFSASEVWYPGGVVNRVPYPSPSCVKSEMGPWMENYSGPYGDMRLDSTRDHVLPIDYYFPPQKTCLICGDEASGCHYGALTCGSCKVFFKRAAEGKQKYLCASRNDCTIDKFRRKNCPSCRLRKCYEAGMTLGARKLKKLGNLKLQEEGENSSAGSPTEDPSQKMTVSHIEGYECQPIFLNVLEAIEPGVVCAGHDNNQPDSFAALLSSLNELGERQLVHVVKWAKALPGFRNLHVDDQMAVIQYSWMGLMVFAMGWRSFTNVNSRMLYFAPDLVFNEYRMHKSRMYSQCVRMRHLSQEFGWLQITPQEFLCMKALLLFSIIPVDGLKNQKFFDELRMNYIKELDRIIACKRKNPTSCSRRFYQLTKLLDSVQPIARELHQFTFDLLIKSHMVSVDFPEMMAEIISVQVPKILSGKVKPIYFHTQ
- assay_name: L929 Androgen Receptor Functional Assay, Adenovirus Transduction
- Format: cell-based
- Set-up: expressed in transfected cells; host or cells: L929 cells transduced with adenovirus AdEasy+rAR
- reported_conditions: L929 agonist testing; concentration of 3000 nM
value_type: % Activity (%)
Record the value in %, omitting the unit from your answer.

// below: answered compounds
CSCCC(C)(O)c1cc2cc(Cl)c(C(F)(F)F)cc2[nH]1 (racemic)
2
CC(O)(CS(C)(=O)=O)c1cc2cc(Cl)c(C(F)(F)F)cc2n1S(C)(=O)=O (stereo not drawn)
0
CC[S+]([O-])CC(O)c1cc2cc([N+](=O)[O-])c(C(F)(F)F)cc2[nH]1 (mixture of isomers)
2
COc1ccc(S(=O)(=O)CC(C)(O)c2cc3cc(Cl)c(C(F)(F)F)cc3[nH]2)cc1 (racemic)
−5

Reported % Activity ( CC(O)(CSc1ccc(C(=O)O)cc1)c1cc2cc(Cl)c(C(F)(F)F)cc2[nH]1 (stereo not drawn) ) = −4

Reported % Activity ( COc1ccc(S(=O)(=O)CC(C)(O)c2cc3cc(Cl)c(C(F)(F)F)cc3n2S(C)(=O)=O)cc1 (stereo not drawn) ) = −4

Reported % Activity ( CC(O)(CSc1ccc(N)cc1)c1cc2cc(Cl)c(C(F)(F)F)cc2n1S(C)(=O)=O (racemic) ) = −5

Reported % Activity ( CC(O)(CS(=O)(=O)CC(F)(F)F)c1cc2cc([N+](=O)[O-])c(C(F)(F)F)cc2[nH]1 (racemic) ) = 1

Reported % Activity ( COc1ccc(SCC(C)(O)c2cc3cc(Cl)c(C(F)(F)F)cc3n2S(C)(=O)=O)cc1 (racemic) ) = −5

---

- assay_target: androgen receptor (Rattus norvegicus, UniProt P15207)
- assay_name: L929 Androgen Receptor Functional Assay, Adenovirus Transduction
- Type: cell-based
- Parameters: expressed in transfected cells; host or cells: L929 cells transduced with adenovirus AdEasy+rAR
- reported_conditions: L929 agonist testing; concentration of 3000 nM
Below, each entry is listed with its recorded % Activity.
Write the numeric value and append its unit.

// below: answered molecules
CC(O)(Sc1ccc(N)cc1)c1cc2cc(Cl)c(C(F)(F)F)cc2[nH]1 (racemic)
−1%
CC(C)SC(C)(CO)c1cc2cc([N+](=O)[O-])c(C(F)(F)F)cc2[nH]1 (racemic)
9%
CC(O)(CSCc1ccco1)c1cc2cc([N+](=O)[O-])c(C(F)(F)F)cc2[nH]1 (racemic)
7%

Pending molecule:
Reported % Activity ( CCSCC(C)(O)c1cc2cc(F)c(Cl)cc2[nH]1 (racemic) ) = 5%

Data credit: patent US9434688B2
